- test-description: beta-lactamase reporter inhibitors in CHO cells, confirmation, artefact control for NOD2-RIPK2 interaction inhibitor project, cell-based, CHO-K1 CMV-bla, CCF4 FRET, fluorescence (AID 624371);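 note: 0% = DMSO only wells and 100% = clavulanate high control wells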
- test-settings: CCF4 FRET ratio, counterscreen, at 4.98 µM
The list shows a part of the results. Calls of active or inactive are those of the source.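 Rule for the calls: active = mean inhibition above the low-control mean inhibition plus three low-control SD (cut at about 11% in these data); inactive = the rest.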
Classes to choose from: yes (1) (active), no (0) (inactive)

{"compound": "O=C(/C=C/c1ccc(N2CCOCC2)cc1)c1ccccc1", "class-name": "yes (1)"}
{"compound": "Cc1ccc(NC(=O)Cn2sc3ccccc3c2=O)cc1", "class-name": "no (0)"}
{"compound": "CNC(=S)N/N=C/c1ccc(OCc2ccccc2)c(Br)c1", "class-name": "yes (1)"}

Ask: How was COc1ccc(OC)c(N=Cc2c(O)[nH]c3ccccc23)c1 classified in this test?
Result: yes (1)

Ask: I would be grateful if you could indicate the recorded call for COC(=O)Cc1cc(=O)oc2c(C)c(O)ccc12 .
Result: yes (1)

###

Can you tell me inhibition for the items I'm about to list?
- test-description: TR-FRET optical interference artefacts, confirmation, artefact control for LEDGF/p75-dependent integration inhibitor project, biochemical, HIV-1 IN multimerization (AID 1053135);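 note: 0% = integrase with antibodies and DMSO and 100% = antibodies without integrase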
- test-settings: TR-FRET optical interference counterscreen, at 7.7 µM, active compounds read high
The list shows a part of the results.
Give bare numbers, in %.

Use these answered entries as a reference point.
{"compound": "CN(C)c1ccc(N/C=C/C(=O)C(F)(F)F)cc1", "inhibition, %": -51.7}
{"compound": "O=C(O)c1ccc(NN=CC2=C(N3CCOCC3)/C(=C/c3ccccc3)CC2)cc1", "inhibition, %": -10.9}
{"compound": "Cc1ccc(-c2cnc(NC(=O)CCC(=O)N(C)Cc3ccccc3)n2C)cc1", "inhibition, %": -0.61}
{"compound": "CN(C)c1ccc(C(CC(=O)O)C(=O)O)cc1 (stereo unspecified)", "inhibition, %": -16.9}
{"compound": "Cc1ccc(N=C2NC(=O)/C(=C/C=C/c3ccco3)S2)cc1C", "inhibition, %": -49.5}
{"compound": "NC1=NN(c2cccc(C(=O)O)c2)C(=O)C1", "inhibition, %": -62}

Please give inhibition for each item listed below.
1. Cc1cc(C(=O)N/N=C/c2ccc(O)c([N+](=O)[O-])c2)c(C)n1-c1ccc(F)cc1
2. Oc1cc(O)c2c(c1)OC(c1ccc(O)c(O)c1)C(O)C2 (stereo unspecified)
3. Oc1ccc(N=Cc2sc3ccccc3c2Cl)cc1
4. CCOc1cccc(=O)c2c(C)n(CC3CCCO3)c(C)c12 (stereo unspecified)

Result:
1: -71.4; 2: -52.5; 3: -37.1; 4: -10.4

Ask: Return value of inhibition for input Cc1ccccc1NCC(=O)N/N=C\c1ccc([N+](=O)[O-])s1 , no commentary.
Result: 1.03

###

- test-description: VP16 transactivation reporter inhibitors, counter-screen for LRH-1 inverse agonist project, cell-based, luminescence, high throughput (AID 651615)
- test-settings: Gal4-VP16 luciferase reporter cells, at 3.6 µM, active compounds read high
I'd be grateful if you could share measured inhibition for these entries.
Give bare numbers, in %.

Check out these entries, answers already filled in.
{"molecule": "Cc1ccc(C)c(NC(=O)CSc2nnc(-c3n[nH]c4ccccc34)o2)c1", "measurement-type": "inhibition", "experimental-result": 5.08}
{"molecule": "CC[n+]1c(/C=C/N(C)c2ccccc2)oc2ccccc21", "measurement-type": "inhibition", "experimental-result": 73.2}
{"molecule": "CCNC(=S)N1CCN(c2nc(CC)nc3sc4c(c23)CCCC4)CC1", "measurement-type": "inhibition", "experimental-result": 5.39}
{"molecule": "O=C(Nc1ccc2oc(-c3ccccc3F)nc2c1)c1ccc([N+](=O)[O-])o1", "measurement-type": "inhibition", "experimental-result": -24.7}
{"molecule": "COc1ccc([C@@]23Oc4cc(OC)cc(OC)c4[C@]2(O)[C@H](O)[C@H](C(=O)N(C)C)[C@H]3c2ccccc2)cc1", "measurement-type": "inhibition", "experimental-result": 98.2}
{"molecule": "COc1cccc(NC(=O)N(C)C[C@H]2Oc3cc(C#Cc4ccncc4)ccc3S(=O)(=O)N([C@H](C)CO)C[C@H]2C)c1", "measurement-type": "inhibition", "experimental-result": -37}

Take each entry in turn and give its inhibition.
1. CCC(=O)N1CCN(c2cc(NCC3CCCO3)c(F)cc2[N+](=O)[O-])CC1 (centres undefined)
2. CCOC(=O)c1ccc(NC(=O)CSc2nnc(COc3ccccc3OC)n2C)cc1
3. O=C(Nc1ccc(Cl)cc1)/C(=C/c1cccc(O)c1)c1nc2ccccc2s1

Result:
0.55
-6.59
71.2

###

- test-description: StAR promoter reporter inhibitors, counter-screen for LRH-1 inverse agonist project, cell-based, luminescence, high throughput (AID 651611)
- test-settings: StAR promoter luciferase reporter counterscreen, at 3.6 µM
Calls of active or inactive are those of the source. No stated cut-off is given here; in the data, active means inhibition above about 28%; inactive means the rest.
Return exactly one item of TRUE = active, FALSE = inactive

{"compound": "C#Cc1ccc(NC(=O)C2(C)CCN2C(=O)Cc2ccc(C(C)(C)C)cc2)cc1 (stereo not given)", "class-name": "FALSE"}
{"compound": "O=C(Nc1nc2c(Cl)cccc2s1)c1ccc([N+](=O)[O-])o1", "class-name": "FALSE"}

Ask: What is the recorded call for this compound in the test? COc1cccc2c1C(=O)c1c(O)c3c(c(O)c1C2=O)CC(O)(C(C)=O)CC3OC1CC(O)C(O)C(C)O1 (stereo not given)
Result: TRUE

Ask: Called result for CC(Cl)C(=O)Nc1ncc(C(F)(F)F)cc1Cl (stereo not given)
Result: FALSE

Ask: Dear all, I need the recorded test outcome for COc1cccc(C(=O)COc2cccc(NC(=O)c3cccc([N+](=O)[O-])c3)c2)c1 , thank you.
Result: FALSE

Ask: Which outcome did this test record for the compound O=[N+]([O-])c1ccc(/C=N/Nc2ccnc3cc(Cl)ccc23)o1 ?
Result: FALSE

Ask: Hi team, can someone confirm the assay call for CC(=O)c1ccsc1-c1c(C)cc2oc(=O)cc(-c3ccccc3)c2c1C ?
Result: FALSE

Ask: What is the recorded call for this compound in the test? O=C(Nc1ccc2oc(-c3ccncc3)nc2c1)c1ccc([N+](=O)[O-])o1
Result: TRUE

Ask: Outcome logged for CCOc1cc(/C=C2\N=C(SC(C)C(N)=O)N(c3ccc(OC(F)F)cc3)C2=O)ccc1O (stereo not given) in this assay:
Result: TRUE

Ask: So what was the verdict on Cc1ccc(C)c(-c2cc(C(=O)N/N=C/c3cccnc3)c3ccccc3n2)c1 in this test?
Result: FALSE

###

- assayed-system: Glutathione S-transferase omega-1 (Homo sapiens) (UniProt P78417)
- Sequence (P78417 whole entry, looked up): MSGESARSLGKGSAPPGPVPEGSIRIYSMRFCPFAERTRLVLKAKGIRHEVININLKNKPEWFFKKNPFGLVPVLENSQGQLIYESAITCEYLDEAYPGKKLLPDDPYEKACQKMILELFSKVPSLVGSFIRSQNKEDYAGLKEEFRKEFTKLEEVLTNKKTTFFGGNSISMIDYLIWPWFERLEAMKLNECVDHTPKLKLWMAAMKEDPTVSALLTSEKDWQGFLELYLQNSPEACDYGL
- test-description: GSTO1 inhibitor hit confirmation, counter-screen for RBBP9 inhibitor project, biochemical, fluorescence polarization, triplicate (AID 2176);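 note: loss of polarization as inhibitors block binding of rhodamine sulfonate ester activity probe; 0% = GSTO1 with DMSO and 100% = wells lacking GSTO1 enzyme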
- test-settings: recombinant GSTO1, probe fluorescence polarization; at 5.96 µM; active compounds read high
The list shows a part of the results. Calls of active or inactive are those of the source.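 The calls were made as follows: active = inhibition above the primary screen's cutoff, its mean inhibition plus 3 SD (cut at about 35% in these data); inactive = the rest.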
measurement-type: inhibition

{"compound": "COc1ccc(OC)c(Nc2nc(-c3ccc(O)c(O)c3)cs2)c1", "inhibition": "2.96% (inactive)"}
{"compound": "Clc1ccccc1CSc1nnc(-c2ccco2)c(-c2ccco2)n1", "inhibition": "23.6% (inactive)"}
{"compound": "O=C(c1[nH]ncc1-c1ccc(Cl)cc1)C1CO1 (stereo unspecified)", "inhibition": "79.6% (active)"}
{"compound": "CCC1(CC)Cc2ccccc2-c2nc(CCl)[nH]c(=O)c21", "inhibition": "94% (active)"}

Fill in inhibition for each of the 2 compounds listed.
1. COC1=C(N2CCOCC2)C(=O)c2ccccc2C1=O
2. Cn1c(SCC(=O)N/N=C/c2ccc(O)c(O)c2)nc2ccccc21

Result:
28.9% (inactive)
3.76% (inactive)

###

- test-description: VP16 transactivation reporter inhibitors, counter-screen for LRH-1 inverse agonist project, cell-based, luminescence, high throughput (AID 651615)
- test-settings: Gal4-VP16 luciferase reporter cells, at 3.6 µM
Calls of active or inactive are those of the source. Rule as the data show it: active = inhibition above about 33%; inactive = the rest.
Choose one outcome from this list and give only that: active, inactive

See these solved cases before continuing.
{"molecule": "CC(C)Nc1ncnc2ccc(Br)cc12", "class-name": "active"}
{"molecule": "COc1cc2c(cc1OC)CN(C(=O)CN1C(=O)NC3(CCC(C)CC3)C1=O)CC2 (stereo unspecified)", "class-name": "inactive"}
{"molecule": "CCOc1ccc(NC(=O)COC(=O)C2CCC(=O)N2)c([N+](=O)[O-])c1 (stereo unspecified)", "class-name": "inactive"}
{"molecule": "COc1cc(C2CC(=O)c3c([nH]c(C(=O)OCCOC(C)C)c3C)C2)cc(OC)c1OC (stereo unspecified)", "class-name": "active"}
{"molecule": "Cc1cc(C)c2c(C)c(C(=O)NCc3ccncc3)oc2c1", "class-name": "inactive"}
{"molecule": "CCN(CC)C1Oc2cc3c(cc2C(c2cccc(OC)c2O)C1C)OCO3 (stereo unspecified)", "class-name": "inactive"}
{"molecule": "CC(Oc1ccc(S(=O)(=O)N2CCCC2)cc1[N+](=O)[O-])C(=O)NC(C)c1ccccc1 (stereo unspecified)", "class-name": "inactive"}
{"molecule": "O=C(OC12CC3CC(CC(C3)C1)C2)c1ccc(NCc2cc(O)ccc2O)cc1", "class-name": "active"}

Ask: What classification did COc1ccccc1Oc1nnnn1-c1ccc(C(N)=O)cc1 end up with in this test?
Result: inactive

Ask: Call for entry CCc1c(O)nc(SCC(=O)Nc2ccc(OC)cc2)n(C2CCCCC2)c1=O :
Result: inactive

Ask: Outcome? Cn1c(=O)n(C)c2cc(NC(=O)CCl)ccc21
Result: inactive

Ask: Call for entry COc1cc(NC(=O)COc2cc(O)c3c(c2)OC(C)(C)CC3=O)cc(OC)c1OC :
Result: active

Ask: What did the test return for Nc1ccccc1Nc1ccncc1[N+](=O)[O-] ?
Result: inactive

Ask: Field: outcome | Entry: CC(C)n1c(SCC(=O)Nc2ccc(N3CCOCC3)cc2)nnc1-c1ccco1
Result: inactive

Ask: Which outcome was assigned to Oc1cccc(Nc2nc(-c3ccccc3Cl)nc3ccccc23)c1 in this test?
Result: inactive

Ask: I'd appreciate the recorded outcome for O=C(COC(=O)c1cccc(O)c1)Nc1ccc(N2CCOCC2)cc1 from this test.
Result: inactive

Entry source: PubChem BioAssay
